tested on: panel of 55 breast cancer cell lines; experiment: Cell growth inhibition assay (Cell Titer Glo, 72 h, 9 doses; GI50, TGI, LC50); assay type: cell-based, human; conditions: MDAMB415 cell line; censored GI50 values; value is the negative log10 of mol/L
Criterion: GI50 strictly under 5. Met: 1.0. Not met: 0.0.

Check out these entries, answers already filled in.
compound	answer-label
Cc1cc(C(=O)N2CCN(c3cccc(Cl)c3)CC2)n(-c2ccccc2)n1 [XRP44X]	0.0
O=S(=O)(CC1CS1)c1ccc(Oc2ccccc2)cc1 (stereo not shown) [SB-3CT]	1.0
CC(C)Oc1ccc(C(=O)N[C@H](CNC(=O)CN(C)C)Cc2ccc(-c3cn4cccc([C@H](C)O)c4n3)cc2)cc1Cl [GSK923295]	0.0
CCNCCCCNCCCCNCCCCNCCCCNCC=CCNCCCCNCCCCNCCCCNCCCCNCC.Cl.Cl.Cl.Cl.Cl.Cl.Cl.Cl.Cl.Cl (stereo in doubt) [CGC-11144]	0.0
C=CCNC1=C2C[C@@H](C)C[C@H](OC)[C@H](O)[C@@H](C)/C=C(\C)[C@H](OC(N)=O)[C@@H](OC)/C=C\C=C(/C)C(=O)NC(=CC1=O)C2=O [17-AAG]	0.0

Incoming: Lab log: compare recorded GI50 with 5; is it strictly lower for CNC(=O)c1c(F)cccc1Nc1nc(Nc2cc3c(cc2OC)CCN3C(=O)CN(C)C)nc2[nH]ccc12 [GSK1838705A] ?
Outgoing: 0.0

Incoming: Lab log: compare recorded GI50 with 5; is it strictly lower for CC(=O)Nc1cccc(-n2c(=O)n(C3CC3)c(=O)c3c(Nc4ccc(I)cc4F)n(C)c(=O)c(C)c32)c1.C[S+](C)[O-] [GSK1120212B] ?
Outgoing: 0.0

Incoming: Lab log: compare recorded GI50 with 5; is it strictly lower for N.N.O=C([O-])C1(C(=O)[O-])CCC1.[Pt+2] [Carboplatin] ?
Outgoing: 1.0

Incoming: Lab log: compare recorded GI50 with 5; is it strictly lower for CCn1cc(-c2ccnc3[nH]c(-c4cccc(CN(C)C)c4)cc23)c(-c2ccc(NC(=O)N(C)C)cc2)n1 [GSK1070916] ?
Outgoing: 0.0

Incoming: Lab log: compare recorded GI50 with 5; is it strictly lower for C[C@@H](Oc1cc(-n2cnc3ccc(CN4CCN(C)CC4)cc32)sc1C(N)=O)c1ccccc1C(F)(F)F [GSK461364A] ?
Outgoing: 0.0
